target: HLA-A*02:02
assay-details: IEDB peptide-MHC binding, purified MHC/competitive/radioactivity; filed as Kd, often an IC50 or EC50 that approximates it; bounds were set here for any values at or beyond the usual limits of such assays
reported-conditions: source organism: Homo sapiens
Each entry below carries its reported Kd.

1. ELADKVTKL: 33.2 nM

Here's the next entry for you.
sequence `EMIQLQEEL` , Kd observed: 123 nM

----------
target: HLA-B*58:01
assay-details: IEDB peptide-MHC binding, purified MHC/direct/fluorescence; filed as Kd, often an IC50 or EC50 that approximates it; bounds were set here for any values at or beyond the usual limits of such assays
reported-conditions: source organism: Campylobacter jejuni RM1221
Each entry below carries its reported Kd.

1. VQKVNPAPK: ≥ 20 µM

Here's the next entry for you.
Assay HLA-B*58:01, sample `AKYEICLEK` , Kd read: ≥ 20 µM

----------
target: HLA-A*03:01
assay-details: IEDB peptide-MHC binding, purified MHC/direct/fluorescence; filed as Kd, often an IC50 or EC50 that approximates it; bounds were set here for any values at or beyond the usual limits of such assays
reported-conditions: source organism: Rickettsia sibirica 246
test-readout: Kd

sequence `APVESMALF` , Kd observed: ≥ 20 µM

----------
target: HLA-A*02:06
assay-details: IEDB peptide-MHC binding, purified MHC/competitive/radioactivity; filed as Kd, often an IC50 or EC50 that approximates it; bounds were set here for any values at or beyond the usual limits of such assays
reported-conditions: source organism: Vaccinia virus WR
Lab note: cut-off is 2000 nM. Strictly less in Kd is fulfilled. Exactly 2000 nM or more is not fulfilled.

Sample answers from the record:
1) ILATLNTLI: fulfilled
2) RTIDAINKCV: fulfilled
3) VLPHLCLDYK: not fulfilled
4) YAVLSEYET: fulfilled
5) PVLEKKVCAI: fulfilled

stdin: Dear reviewer, please state whether `SIAMLKSKNI` has Kd strictly beneath 2000 nM.
stdout: fulfilled

stdin: Dear reviewer, please state whether `LVAEHRFENM` has Kd strictly beneath 2000 nM.
stdout: fulfilled

stdin: Dear reviewer, please state whether `ATQFNFNGHT` has Kd strictly beneath 2000 nM.
stdout: not fulfilled

stdin: Dear reviewer, please state whether `CQCTVQEFI` has Kd strictly beneath 2000 nM.
stdout: fulfilled

stdin: Dear reviewer, please state whether `YVSSSYKDI` has Kd strictly beneath 2000 nM.
stdout: not fulfilled

stdin: Dear reviewer, please state whether `VVISVIFYFI` has Kd strictly beneath 2000 nM.
stdout: fulfilled

----------
target: HLA-A*02:06
assay-details: IEDB peptide-MHC binding, purified MHC/competitive/fluorescence; filed as Kd, often an IC50 or EC50 that approximates it; bounds were set here for any values at or beyond the usual limits of such assays
reported-conditions: source organism: Orthomarburgvirus marburgense
test-readout: pKd
Scale: negative log10 of molar concentration, which is what pKd denotes.

1) TVLEFILQK: 6.11

Here's the next entry for you.
sequence `LYKTIVNIW` , pKd observed: 6.96

----------
target: HLA-A*26:02
assay-details: IEDB peptide-MHC binding, purified MHC/direct/fluorescence; filed as Kd, often an IC50 or EC50 that approximates it; bounds were set here for any values at or beyond the usual limits of such assays
reported-conditions: source organism: Dengue virus 2 Thailand/16681/84
test-readout: Kd (nM)
Quick reminder: number only, in nM, skip the unit.

sequence `ETLETLLLL` , Kd observed: 55
